Values compiled from ChEMBL document CHEMBL2396550.

# Test system: MDM
# assay.explanation: Antihyperlipidemic activity in human MDM assessed as inhibition of acetylated LDL-induced [3H]-cholesterol ester accumulation at 20 uM after 24 hrs by radioscanner analysis in presence of [3H]-oleate-conjugated BSA
# Format: functional
The source made the active and inactive calls. The calls are words filed in the database; no cut-off is given here.

molecule	inhibition
O=C1CCCN2[C@@H]3[C@@]45CN6CCCC/C=C\CC[C@@]3(C=C(c3nccc7c3[nH]c3ccccc37)[C@@H]4CC6)O[C@]2(CC1)C5	Active
O=CC1=C[C@@]2(O)CC/C=C\CCCCN3CC[C@@H]1[C@]1(C[C@@H]4/C=C\CCCCN4[C@H]12)C3	Active
Oc1ccc2[nH]c3c(C4=C[C@@]5(O)CC/C=C\CCCCN6CCC4[C@]4(C[C@@H]7/C=C\CCCCN7[C@H]45)C6)nccc3c2c1 (stereo partly drawn)	Active

---

# tested.system: UniProt O75908
# Sequence (O75908 whole entry): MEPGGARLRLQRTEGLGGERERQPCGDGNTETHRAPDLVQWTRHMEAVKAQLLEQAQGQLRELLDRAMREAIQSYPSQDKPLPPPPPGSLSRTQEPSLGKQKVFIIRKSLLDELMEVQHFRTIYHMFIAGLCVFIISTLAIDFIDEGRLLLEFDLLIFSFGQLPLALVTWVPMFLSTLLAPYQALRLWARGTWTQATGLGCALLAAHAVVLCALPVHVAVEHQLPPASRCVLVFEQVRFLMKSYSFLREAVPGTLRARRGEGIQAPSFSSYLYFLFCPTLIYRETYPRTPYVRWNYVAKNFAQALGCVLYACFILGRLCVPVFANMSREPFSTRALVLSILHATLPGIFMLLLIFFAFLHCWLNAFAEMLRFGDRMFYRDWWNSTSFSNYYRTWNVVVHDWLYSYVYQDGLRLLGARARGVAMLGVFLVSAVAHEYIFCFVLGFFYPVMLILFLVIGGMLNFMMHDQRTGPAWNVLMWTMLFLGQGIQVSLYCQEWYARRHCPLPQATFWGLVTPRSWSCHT
# assay.explanation: Non-competitive inhibition of human microsomal ACAT2 overexpressed in CHO cells using [14C]oleoyl-CoA as substrate assessed as formation of cholesteryl [14C]-oleate […]
property.label: IC50 (µM)
Please state the figure in µM; there is no need to write the unit.

Qu. Please give measured IC50 of the following entry: O[C@]12C=C(c3nccc4c3[nH]c3ccccc34)[C@@H]3CCN(CCCC/C=C\CC1)C[C@@]31C[C@@H]3/C=C\CCCCN3[C@H]12
Ans. 4.8

---

# assay.explanation: Antihyperlipidemic activity in apoE-deficient mouse peritoneal macrophages assessed as inhibition of acetylated LDL-induced [3H]-cholesterol ester accumulation after 24 hrs by radioscanner analysis in presence of [3H]-oleate-conjugated BSA
# Assay type: functional, cell-based
# study.conditions: Peritoneal macrophage cell
property.label: pIC50
Scale note: pIC50 = -log10(concentration in M).

Qu. Please give measured pIC50 of the following entry: O[C@]12C=C(c3nccc4c3[nH]c3ccccc34)[C@@H]3CCN(CCCC/C=C\CC1)C[C@@]31C[C@@H]3/C=C\CCCCN3[C@H]12 [MANZAMINE A]
Ans. 5.21

---

# tested.system: Sterol O-acyltransferase 1 (Homo sapiens, UniProt P35610)
# assay.explanation: Non-competitive inhibition of human microsomal ACAT1 overexpressed in CHO cells using [14C]oleoyl-CoA as substrate assessed as formation of cholesteryl [14C]-oleate […]
property.label: pIC50
Scale note: pIC50 = -log10(concentration in M).

Qu. Please give measured pIC50 of the following entry: O[C@]12C=C(c3nccc4c3[nH]c3ccccc34)[C@@H]3CCN(CCCC/C=C\CC1)C[C@@]31C[C@@H]3/C=C\CCCCN3[C@H]12
Ans. 5.21

---

# tested.system: Sterol O-acyltransferase 1 (Homo sapiens)
# assay.explanation: Inhibition of macrophage ACAT (unknown origin)
property.label: pIC50
Scale note: pIC50 = -log10(concentration in M).

Qu. Please give measured pIC50 of the following entry: CCCCCCCCCN(CC(C)(C)C)C(=O)N[C@H]1CCCC[C@@H]1OC(=O)CCNC(=O)[C@@H]1OC(C)(C)OCC1(C)C
Ans. 7.49

---

# tested.system: Sterol O-acyltransferase 1 (Homo sapiens)
# Sequence (P35610 whole entry): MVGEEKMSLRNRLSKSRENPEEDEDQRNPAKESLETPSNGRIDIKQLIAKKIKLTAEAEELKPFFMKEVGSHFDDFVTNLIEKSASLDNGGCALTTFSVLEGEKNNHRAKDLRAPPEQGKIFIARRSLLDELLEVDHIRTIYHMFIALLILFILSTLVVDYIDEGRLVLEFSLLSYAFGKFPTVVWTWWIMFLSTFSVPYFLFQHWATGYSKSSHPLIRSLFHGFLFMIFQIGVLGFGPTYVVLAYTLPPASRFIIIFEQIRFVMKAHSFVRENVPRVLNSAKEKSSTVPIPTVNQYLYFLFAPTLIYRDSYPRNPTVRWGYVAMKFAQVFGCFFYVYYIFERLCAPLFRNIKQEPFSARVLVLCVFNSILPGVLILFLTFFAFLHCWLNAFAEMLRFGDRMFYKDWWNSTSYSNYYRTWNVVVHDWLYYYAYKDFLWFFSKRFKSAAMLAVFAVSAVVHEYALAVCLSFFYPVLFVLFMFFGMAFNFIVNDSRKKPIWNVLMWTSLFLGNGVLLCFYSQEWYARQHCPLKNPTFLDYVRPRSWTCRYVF
# assay.explanation: Non-competitive inhibition of microsomal ACAT in human MDM using [14C]oleoyl-CoA as substrate assessed as formation of cholesteryl [14C]-oleate […]
property.label: pIC50
Scale note: pIC50 = -log10(concentration in M).

Qu. Give reported pIC50 for O[C@]12C=C(c3nccc4c3[nH]c3ccccc34)[C@@H]3CCN(CCCC/C=C\CC1)C[C@@]31C[C@@H]3/C=C\CCCCN3[C@H]12 (Sterol O-acyltransferase 1 (Homo sapiens))
Ans. 5.19

---

# tested.system: Sterol O-acyltransferase 1 (Homo sapiens, UniProt P35610)
property.label: pIC50
Scale note: pIC50 = -log10(concentration in M).

Qu. Give reported pIC50 for CC(C)c1cc(C(C)C)c(CC(=O)NS(=O)(=O)Oc2c(C(C)C)cccc2C(C)C)c(C(C)C)c1 [AVASIMIBE] (Sterol O-acyltransferase 1 (Homo sapiens, UniProt P35610))
Ans. 4.63

---

# Test system: MDM
# assay.explanation: Antihyperlipidemic activity in human MDM assessed as inhibition of acetylated LDL-induced [3H]-cholesterol ester accumulation at 20 uM after 24 hrs by radioscanner analysis in presence of [3H]-oleate-conjugated BSA
# Assay type: functional
Active and inactive are the calls of the source. The calls are words filed in the database; no cut-off is given here.

compound	inhibition
O[C@]12C=C(c3nccc4c3[nH]c3ccccc34)[C@@H]3CCN(CCCC/C=C\CC1)C[C@@]31C[C@@H]3/C=C\CCCCN3[C@H]12	Active
O[C@H]1/C=C/C[C@]2(O)C=C(c3nccc4c3[nH]c3ccccc34)[C@@H]3CCN(CCCC1)C[C@@]31C[C@@H]3/C=C\CCCCN3[C@H]12	Active
Oc1cccc2c1[nH]c1c(C3=C[C@@]4(O)CC/C=C\CCCCN5CC[C@@H]3[C@]3(CC6/C=C\CCCCN6[C@H]34)C5)nccc12 (some centres undefined)	Active
c1ccc2c(c1)[nH]c1cnccc12	Active
